protocol description: Study 2: single- and multiple-dose pharmacokinetics of the 2 min iv injection
Format: in vivo, human
experimental setup: both, human, plasma, iv, 6 mg/kg, t1/2, Study 2, day 1, 6 mg/kg 2 min iv injection, plasma, arithmetic mean (SD), n = 12; SD
measured attribute: half-life (h)
Numeric only. Scale: h

Record summary for CCCCCCCCCC(=O)N[C@@H](Cc1c[nH]c2ccccc12)C(=O)N[C@H](CC(N)=O)C(=O)N[C@@H](CC(=O)O)C(=O)N[C@@H]1C(=O)NCC(=O)N[C@@H](CCCN)C(=O)N[C@@H](CC(=O)O)C(=O)N[C@H](C)C(=O)N[C@@H](CC(=O)O)C(=O)NCC(=O)N[C@H](CO)C(=O)N[C@@H]([C@H](C)CC(=O)O)C(=O)N[C@@H](CC(=O)c2ccccc2N)C(=O)O[C@@H]1C : reported half-life = 8.43

###

Type: in vivo, human
experimental setup: both, human, plasma, iv, 6 mg/kg, CL, Study 1, single 6 mg/kg dose, 2 min iv injection, healthy adult volunteers, HPLC, non-compartmental, arithmetic mean (SD), n = 15; SD
measured attribute: clearance (mL/min/kg)
Could you give me the number in mL/min/kg? Just the number is fine.

Briefly, clearance measured for CCCCCCCCCC(=O)N[C@@H](Cc1c[nH]c2ccccc12)C(=O)N[C@H](CC(N)=O)C(=O)N[C@@H](CC(=O)O)C(=O)N[C@@H]1C(=O)NCC(=O)N[C@@H](CCCN)C(=O)N[C@@H](CC(=O)O)C(=O)N[C@H](C)C(=O)N[C@@H](CC(=O)O)C(=O)NCC(=O)N[C@H](CO)C(=O)N[C@@H]([C@H](C)CC(=O)O)C(=O)N[C@@H](CC(=O)c2ccccc2N)C(=O)O[C@@H]1C [daptomycin] : 0.148

###

protocol description: Study 2: single- and multiple-dose pharmacokinetics of the 2 min iv injection
Assay type: in vivo, human
experimental setup: both, human, plasma, iv, 6 mg/kg, Tmax, Study 2, day 7, 6 mg/kg 2 min iv injection once daily, plasma, median (range), n = 12
measured attribute: Tmax (min)
# value in min; strip the unit string

Tmax for CCCCCCCCCC(=O)N[C@@H](Cc1c[nH]c2ccccc12)C(=O)N[C@H](CC(N)=O)C(=O)N[C@@H](CC(=O)O)C(=O)N[C@@H]1C(=O)NCC(=O)N[C@@H](CCCN)C(=O)N[C@@H](CC(=O)O)C(=O)N[C@H](C)C(=O)N[C@@H](CC(=O)O)C(=O)NCC(=O)N[C@H](CO)C(=O)N[C@@H]([C@H](C)CC(=O)O)C(=O)N[C@@H](CC(=O)c2ccccc2N)C(=O)O[C@@H]1C [daptomycin] is 15

###

protocol description: Study 2: single- and multiple-dose pharmacokinetics of the 2 min iv injection
Type: in vivo, human
experimental setup: both, human, plasma, iv, 4 mg/kg; SD
measured attribute: AUC(0-t) (µg·h/mL)
Express the result in µg·h/mL but write the number alone.

Item: CCCCCCCCCC(=O)N[C@@H](Cc1c[nH]c2ccccc12)C(=O)N[C@H](CC(N)=O)C(=O)N[C@@H](CC(=O)O)C(=O)N[C@@H]1C(=O)NCC(=O)N[C@@H](CCCN)C(=O)N[C@@H](CC(=O)O)C(=O)N[C@H](C)C(=O)N[C@@H](CC(=O)O)C(=O)NCC(=O)N[C@H](CO)C(=O)N[C@@H]([C@H](C)CC(=O)O)C(=O)N[C@@H](CC(=O)c2ccccc2N)C(=O)O[C@@H]1C | AUC(0-t): 475

###

protocol description: Study 2: single- and multiple-dose pharmacokinetics of the 2 min iv injection
Assay type: in vivo, human
experimental setup: both, human, plasma, iv, 4 mg/kg, CL, Study 2, day 7, 4 mg/kg 2 min iv injection once daily, plasma, arithmetic mean (SD), n = 8; SD
measured attribute: clearance (mL/min/kg)
Write the answer as a number in mL/min/kg, unit excluded.

clearance measured on CCCCCCCCCC(=O)N[C@@H](Cc1c[nH]c2ccccc12)C(=O)N[C@H](CC(N)=O)C(=O)N[C@@H](CC(=O)O)C(=O)N[C@@H]1C(=O)NCC(=O)N[C@@H](CCCN)C(=O)N[C@@H](CC(=O)O)C(=O)N[C@H](C)C(=O)N[C@@H](CC(=O)O)C(=O)NCC(=O)N[C@H](CO)C(=O)N[C@@H]([C@H](C)CC(=O)O)C(=O)N[C@@H](CC(=O)c2ccccc2N)C(=O)O[C@@H]1C = 0.143

###

protocol description: Study 2: single- and multiple-dose pharmacokinetics of the 2 min iv injection
Format: in vivo, human
experimental setup: both, human, plasma, iv, 6 mg/kg, Cmax, Study 2, day 1, 6 mg/kg 2 min iv injection, plasma, HPLC, arithmetic mean (SD), n = 12; SD
measured attribute: Cmax (µg/mL)
Could you give me the number in µg/mL? Just the number is fine.

Record CCCCCCCCCC(=O)N[C@@H](Cc1c[nH]c2ccccc12)C(=O)N[C@H](CC(N)=O)C(=O)N[C@@H](CC(=O)O)C(=O)N[C@@H]1C(=O)NCC(=O)N[C@@H](CCCN)C(=O)N[C@@H](CC(=O)O)C(=O)N[C@H](C)C(=O)N[C@@H](CC(=O)O)C(=O)NCC(=O)N[C@H](CO)C(=O)N[C@@H]([C@H](C)CC(=O)O)C(=O)N[C@@H](CC(=O)c2ccccc2N)C(=O)O[C@@H]1C , field Cmax: 97.5

###

protocol description: Study 2: single- and multiple-dose pharmacokinetics of the 2 min iv injection
Type: in vivo, human
experimental setup: both, human, plasma, iv, 4 mg/kg, V, Study 2, day 1, 4 mg/kg 2 min iv injection, plasma, arithmetic mean (SD), n = 8; SD
measured attribute: Vd (L/kg)
Value expressed in L/kg; do not type the unit.

According to the records, this compound CCCCCCCCCC(=O)N[C@@H](Cc1c[nH]c2ccccc12)C(=O)N[C@H](CC(N)=O)C(=O)N[C@@H](CC(=O)O)C(=O)N[C@@H]1C(=O)NCC(=O)N[C@@H](CCCN)C(=O)N[C@@H](CC(=O)O)C(=O)N[C@H](C)C(=O)N[C@@H](CC(=O)O)C(=O)NCC(=O)N[C@H](CO)C(=O)N[C@@H]([C@H](C)CC(=O)O)C(=O)N[C@@H](CC(=O)c2ccccc2N)C(=O)O[C@@H]1C displays Vd of 0.116

###

protocol description: Study 2: single- and multiple-dose pharmacokinetics of the 2 min iv injection
Format: in vivo, human
experimental setup: both, human, plasma, iv, 6 mg/kg, Tmax, Study 2, day 1, 6 mg/kg 2 min iv injection, plasma, median (range), n = 12
measured attribute: Tmax
Phrase the answer as number then unit, nothing more needed.

# Tmax of CCCCCCCCCC(=O)N[C@@H](Cc1c[nH]c2ccccc12)C(=O)N[C@H](CC(N)=O)C(=O)N[C@@H](CC(=O)O)C(=O)N[C@@H]1C(=O)NCC(=O)N[C@@H](CCCN)C(=O)N[C@@H](CC(=O)O)C(=O)N[C@H](C)C(=O)N[C@@H](CC(=O)O)C(=O)NCC(=O)N[C@H](CO)C(=O)N[C@@H]([C@H](C)CC(=O)O)C(=O)N[C@@H](CC(=O)c2ccccc2N)C(=O)O[C@@H]1C = 1.8 min

###

protocol description: Study 2: single- and multiple-dose pharmacokinetics of the 2 min iv injection
Type: in vivo, human
experimental setup: both, human, plasma, iv, 4 mg/kg, CL, Study 2, day 1, 4 mg/kg 2 min iv injection, plasma, arithmetic mean (SD), n = 8; SD
measured attribute: clearance (mL/min/kg)
Unit mL/min/kg implied. Number only.

The recorded clearance for CCCCCCCCCC(=O)N[C@@H](Cc1c[nH]c2ccccc12)C(=O)N[C@H](CC(N)=O)C(=O)N[C@@H](CC(=O)O)C(=O)N[C@@H]1C(=O)NCC(=O)N[C@@H](CCCN)C(=O)N[C@@H](CC(=O)O)C(=O)N[C@H](C)C(=O)N[C@@H](CC(=O)O)C(=O)NCC(=O)N[C@H](CO)C(=O)N[C@@H]([C@H](C)CC(=O)O)C(=O)N[C@@H](CC(=O)c2ccccc2N)C(=O)O[C@@H]1C is 0.15

###

protocol description: Study 2: single- and multiple-dose pharmacokinetics of the 2 min iv injection
Assay type: in vivo, human
experimental setup: both, human, plasma, iv, 4 mg/kg, Cmax, Study 2, day 1, 4 mg/kg 2 min iv injection, plasma, HPLC, arithmetic mean (SD), n = 8; SD
measured attribute: Cmax (µg/mL)
Give the value in µg/mL but do not write µg/mL after it.

Record CCCCCCCCCC(=O)N[C@@H](Cc1c[nH]c2ccccc12)C(=O)N[C@H](CC(N)=O)C(=O)N[C@@H](CC(=O)O)C(=O)N[C@@H]1C(=O)NCC(=O)N[C@@H](CCCN)C(=O)N[C@@H](CC(=O)O)C(=O)N[C@H](C)C(=O)N[C@@H](CC(=O)O)C(=O)NCC(=O)N[C@H](CO)C(=O)N[C@@H]([C@H](C)CC(=O)O)C(=O)N[C@@H](CC(=O)c2ccccc2N)C(=O)O[C@@H]1C , field Cmax: 56.8
